Reported survival values follow for various compounds
# System: DeltatarO mutant
# Protocol: S. aureus survival, RN4220 and DeltatarO strains – OD600, teichoic acid synthesis inhibitors, primary screen (AID 463173)
# Cond: S. aureus RN4220 wild type/DeltatarO growth, OD600, 18 h, active compounds read low, screened at 18.75 µg/mL (by protocol)
The campaign covered roughly 52,000 compounds. About 4,300 (8.3%) were called active. This excerpt belongs to a sample that is enriched for actives.
Return type: number; implicit unit %.

>  <Smi>
O=C(NCCCN1CCN(c2ccc(F)cc2)CC1)c1cnn(-c2ccc(F)cc2)c1-n1cccc1

>  <Reported Result>
70

$$$$

# return survival for `Cc1c(Cl)cccc1-n1ncc(C(=O)N2CCN(c3ncccn3)CC2)c1C1CCN(C(=O)OC(C)(C)C)CC1` , test system: DeltatarO mutant
102

Identify measured survival obtained with DeltatarO mutant for `Cc1ccc(-n2nc(C)c(C(=O)NCCCN3CCN(c4ccc(F)cc4)CC3)c2-n2cccc2)cc1` .
92

GET survival | system: DeltatarO mutant | item: `Cc1ccc(-n2ncc(C(=O)NCCCN3CCN(c4cccc(Cl)c4)CC3)c2-n2cccc2)cc1`
75
